Where do these numbers come from? They come from patent US8426425B2.

- Target Entity: GSK-3β (AA 1-420) (Homo sapiens)
- Sequence (P49841 whole entry, species assumed, the tested form may be a part): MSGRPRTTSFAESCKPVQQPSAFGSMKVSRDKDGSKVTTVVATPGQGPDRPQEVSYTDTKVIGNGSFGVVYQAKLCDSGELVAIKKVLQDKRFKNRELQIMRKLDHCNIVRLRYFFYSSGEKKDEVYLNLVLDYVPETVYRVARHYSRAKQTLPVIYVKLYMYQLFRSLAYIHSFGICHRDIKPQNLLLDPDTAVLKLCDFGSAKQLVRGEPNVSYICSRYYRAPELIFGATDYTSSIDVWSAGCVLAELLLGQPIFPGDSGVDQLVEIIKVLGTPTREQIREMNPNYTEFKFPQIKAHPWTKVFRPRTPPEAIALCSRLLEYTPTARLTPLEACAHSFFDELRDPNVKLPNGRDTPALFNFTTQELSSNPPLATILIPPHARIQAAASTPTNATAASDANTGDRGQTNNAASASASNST

Smiles Input: Cc1cc(Nc2cc(N3CCC3)nc(C3CCCCC3)n2)n[nH]1
Ki: < 50 nM
